Cited source for all entries: ChEMBL document CHEMBL4346679

method description: Safety index, ratio of CC50 for mouse peritoneal macrophage to IC50 for promastigote stage of Leishmania amazonensis MPRO/BR/1972/M1841-LV-79
Type: toxicity
run conditions: read-out: Ratio CC50/IC50
Listed here: items and their measured selectivity ratio.

Use the examples below as a reference point.
input smiles	selectivity ratio
CC(C)(C)c1ccc(N/C(=N\C(=O)c2ccccc2)NCc2ccccc2)cc1	43.2
O=C(/N=C(/NCc1ccccc1)Nc1ccc(Br)cc1)c1ccccc1	37.7
N=C(N)c1ccc(OCCCCCOc2ccc(C(=N)N)cc2)cc1	4.7
O=C(/N=C(/NCc1ccccc1)Nc1ccc(I)cc1)c1ccccc1	38.9

(Q) Query (compound): `C[C@@H]1[C@H](O)[C@@H](C)/C=C/C=C/C=C/C=C/C=C/C=C/C=C/[C@H](O[C@@H]2O[C@H](C)[C@@H](O)[C@H](N)[C@@H]2O)C[C@@H]2O[C@](O)(C[C@@H](O)C[C@@H](O)[C@H](O)CC[C@@H](O)C[C@@H](O)CC(=O)O[C@H]1C)C[C@H](O)[C@H]2C(=O)O` ; field requested: selectivity ratio
(A) 7.2

(Q) Record: `COc1ccc(N/C(=N\C(=O)c2ccccc2)NCc2ccccc2)cc1`
(A) 32.9

(Q) Record: `O=C(/N=C(/NCc1ccccc1)Nc1ccc(C(F)(F)F)cc1)c1ccccc1`
(A) 2.7

(Q) Record: `O=C(/N=C(/NCc1ccccc1)Nc1ccc(Cl)cc1)c1ccccc1`
(A) 42

(Q) Record: `O=C(/N=C(/NCc1ccccc1)Nc1ccc([N+](=O)[O-])cc1)c1ccccc1`
(A) 69.7

---

method description: Safety index, ratio of CC50 for mouse peritoneal macrophages to IC50 for Leishmania amazonensis MPRO/BR/1972/M1841-LV-79 amastigotes infected in mouse peritoneal macrophages
Format: toxicity
run conditions: read-out: Ratio CC50/IC50
readout label: selectivity ratio
Please reply with the value in numeric form only.

Use the examples below as a reference point.
> print(dat)
                               input.smiles  reported.result
1  O=C(/N=C(/NCc1ccccc1)Nc1ccc([N+](=O)[O-])cc1)c1ccccc1             36.4
2  Cc1ccc(N/C(=N\C(=O)c2ccccc2)NCc2ccccc2)cc1             36.2

(Q) Query (compound): `CC(C)(C)c1ccc(N/C(=N\C(=O)c2ccccc2)NCc2ccccc2)cc1` ; field requested: selectivity ratio
(A) 65

---

method description: Safety index, ratio of CC50 for mouse peritoneal macrophages to IC50 for Leishmania amazonensis MPRO/BR/1972/M1841-LV-79 amastigotes infected in mouse peritoneal macrophages
Type: toxicity
run conditions: read-out: Ratio CC50/IC50
Class met: selectivity ratio at least 20. Class not met: selectivity ratio below 20.

Past entries and their recorded results:
input smiles	discrete label
N=C(N)c1ccc(OCCCCCOc2ccc(C(=N)N)cc2)cc1	not met
O=C(/N=C(/NCc1ccccc1)Nc1ccc(C(F)(F)F)cc1)c1ccccc1	not met

(Q) Textbook exercise: given the entry `O=C(/N=C(/NCc1ccccc1)Nc1ccc(F)cc1)c1ccccc1` , state whether its selectivity ratio is greater than or equal to 20.
(A) met

(Q) Record: `COc1ccc(N/C(=N\C(=O)c2ccccc2)NCc2ccccc2)cc1`
(A) met

(Q) Record: `C[C@@H]1[C@H](O)[C@@H](C)/C=C/C=C/C=C/C=C/C=C/C=C/C=C/[C@H](O[C@@H]2O[C@H](C)[C@@H](O)[C@H](N)[C@@H]2O)C[C@@H]2O[C@](O)(C[C@@H](O)C[C@@H](O)[C@H](O)CC[C@@H](O)C[C@@H](O)CC(=O)O[C@H]1C)C[C@H](O)[C@H]2C(=O)O`
(A) not met

(Q) Record: `O=C(/N=C(/NCc1ccccc1)Nc1ccc(Br)cc1)c1ccccc1`
(A) met

(Q) Record: `O=C(/N=C(/NCc1ccccc1)Nc1ccc(I)cc1)c1ccccc1`
(A) met
